# protocol_summary: Viability qHTS for inhibitors of the SERCaMP assay screened against the NCATS CANVASS Library (AID 1347400); further: nearly all actives have a fitted effect of over 70% in size; further: potency means the concentration at half of the fitted maximal effect
# assay_conditions: SH-SY5Y SERCaMP cells viability, CellTiter-Glo, 48 h; series mostly up to 92.2 µM
Records with an inconclusive call do not appear. Active and inactive are the calls of the source. The call rests on the fitted dose curve; in most records, active means well fitted cell-killing curve with a large enough effect; inconclusive means small, poorly fitted or top-dose-only effect; inactive means flat fitted curve, though single readings scatter. Bridge positions count the residues as written; N and C are the ends. Square brackets hold non-standard residues; d marks the D form. Side chains are listed from the residue outwards. Peptide text beside a SMILES is read from it. * marks the point of attachment. Phg(4-OMe) = COc1ccc([C@H](N)C(=O)O)cc1; d(aIle) = CC[C@H](C)[C@@H](N)C(=O)O; d(aThr) = C[C@@H](O)[C@@H](N)C(=O)O; NMeF = CN[C@@H](Cc1ccccc1)C(=O)O; Isobutyryl = CC(C)C(=O)*; Hexanoyl = CCCCCC(=O)*
observable: Potency

CC1=C[C@H]2[C@H]3C(=O)C(c4ccc(O)cc4)=C[C@@]3(c3ccc(O)cc3)[C@@H]1C(=O)[C@]2(C)O ... 480 nM (active)
CC1(C)CC[C@]2(CO)CC[C@]3(C)C(=CCC4[C@@]5(C)CC[C@H](O)C(C)(C)C5CC[C@]43C)C2C1 (some centres undefined) ... inactive
C/C=C(/C)c1c(Cl)c(O)c(C)c2c1Oc1c(Cl)c(O)c(Cl)c(C)c1C(=O)O2 ... inactive
CO[C@H]1[C@@H](OC(=O)/C(C)=C\[C@@H]2O[C@@H]2[C@H]2O[C@H]2C)[C@H](O)[C@H](OCC23C[C@@H]4[C@H](C)CC[C@H]4C4(C=O)CC2C=C(C(C)C)C34C(=O)O)O[C@@H]1C (some centres undefined) ... inactive
CC[C@H](C)[C@H]1NC(=O)[C@@H](NC(=O)C(C)C)[C@@H](C)OC(=O)[C@H](COC(=O)CNC(C)=O)NC(=O)[C@@H]([C@@H](C)O)NC(=O)[C@H](Cc2ccccc2)N(C)C(=O)[C@H](c2ccc(OC)cc2)NC1=O (Isobutyryl-T[d(aIle)][Phg(4-OMe)][NMeF][d(aThr)]S([Gly-Ac]); ester 1-C) ... inactive

Provide measured Potency value, entry: CC[C@@H](c1cc(OC)c(OC)cc1OC)[C@H](C)[C@@H](/C(C)=C/c1cc(OC)c(OC)cc1OC)c1cc(OC)c(OC)cc1OC
inactive

Provide measured Potency value, entry: CCCCCC(=O)N[C@@H](CC(C)C)C(=O)N[C@H](C=O)CCC(=O)O (Hexanoyl-Leu-Glu-aldehyde)
inactive

Provide measured Potency value, entry: COC1C(C)OC(OCC23C[C@@H]4[C@H](C)CC[C@H]4C4(C=O)CC2C=C(C(C)C)C34C(=O)O)[C@@H](O)[C@H]1O (some centres undefined)
inactive

Provide measured Potency value, entry: CC1=C2CC[C@]3(C)[C@H](CC=C4[C@@H]5CC(C)(C)CC[C@@H]5C(=O)[C@H](O)[C@]43C)[C@@]2(C)C=C(O)C1=O
inactive

Provide measured Potency value, entry: CC(C)=CCC/C(C)=C/Cc1cc([C@@H]2CC(=O)c3c(cc(O)c(CC=C(C)C)c3O)O2)ccc1O
inactive
